System: A431 cells
Experiment: Cell growth inhibition (CellTiter-Glo), A431
Type: cell-based
Conditions: Homo sapiens, A-431, 72 h, 3 days
endpoint.name: GI50

These recorded examples may help you get a feel for the data.
C=CC(=O)N1CCC(c2c[nH]c3ncnc(Nc4ccc(OCc5cc(C(F)(F)F)ccn5)c(Cl)c4)c23)CC1; < 50 nM
C=CC(=O)N1CCC(c2n[nH]c3ncnc(Nc4ccc(Oc5ccnc(C(=O)NC)c5)cc4F)c23)CC1; > 1000 nM
C=CC(=O)N1CCC(c2ccn3ncnc(Nc4ccc(OCc5ccccn5)c(Cl)c4)c23)CC1; < 50 nM
C=CC(=O)N1CCC(c2c[nH]c3ncnc(Nc4ccc(OCc5cc(C)ccn5)c(Cl)c4)c23)CC1; 200 to 1000 nM
C=CC(=O)N1CCC(c2c[nH]c3ncnc(Nc4ccc(Cl)c(Cl)c4F)c23)CC1; > 1000 nM

Output reported GI50 of the molecule C=CC(=O)N1CCC(c2n[nH]c3ncnc(Nc4ccc(Oc5ccnc(N6CCO[C@H](C)C6)c5)cc4F)c23)CC1 on A431 cells. > 1000 nM

Output reported GI50 of the molecule C=CC(=O)N1CCC(c2ccn3ncnc(Nc4ccc(Oc5ccnc(N6CCC(C#N)C6)c5)cc4F)c23)CC1 (stereo not shown) on A431 cells. > 1000 nM

* * *

System: A431 cells
Test: Cell growth inhibition (CellTiter-Glo), A431
Type: cell-based
Conditions: Homo sapiens, A-431, 72 h, 3 days
endpoint.name: GI50

These recorded examples may help you get a feel for the data.
C=CC(=O)N1CCC(c2n[nH]c3ncnc(Nc4ccc(Oc5ccnc(N6CC(C)(OC)C6)c5)cc4F)c23)CC1 [Compound 178]; > 1000 nM
C=CC(=O)N1CCC(c2csc3ncnc(Nc4ccc(OCc5ccccn5)c(Cl)c4)c23)CC1 [Compound 160]; < 50 nM
C=CC(=O)N1CCC(c2c[nH]c3ncnc(Nc4ccc(Oc5nc(-c6cnc(OC)nc6)cs5)cc4F)c23)CC1 [Compound 149]; > 1000 nM

Give the reported GI50 for this molecule. C=CC(=O)N1CCC(c2c[nH]c3ncnc(Nc4ccc(Oc5ccnc(NC(=O)C6CC6)c5)cc4F)c23)CC1 [Compound 232] > 1000 nM

Give the reported GI50 for this molecule. C=CC(=O)N1CCC(c2c[nH]c3ncnc(Nc4ccc(Oc5ccnc(-n6ccc(OC)n6)c5)cc4F)c23)CC1 [Compound 136] > 1000 nM

Give the reported GI50 for this molecule. C=CC(=O)N1CCC(c2n[nH]c3ncnc(Nc4ccc(Oc5ccnc(N6CC7CC7C6)c5)cc4F)c23)CC1 (stereo not drawn) [Compound 180] > 1000 nM

* * *

Reported GI50 values follow for various molecules
Test system: A431 cells
Experiment: Cell growth inhibition (CellTiter-Glo), A431
Assay type: cell-based
Settings: Homo sapiens, A-431, 72 h, 3 days

C=CC(=O)N1CCC(c2c[nH]c3ncnc(Nc4ccc(Oc5ccnc(N6CCC(F)(F)C6)c5)cc4F)c23)CC1; > 1000 nM
C=CC(=O)N1CCC(c2n[nH]c3ncnc(Nc4ccc(Oc5ccnc(N6CCC(F)(F)C6)c5)cc4F)c23)CC1; > 1000 nM
C=CC(=O)N1CC(c2c[nH]c3ncnc(Nc4ccc(OCc5ccccn5)c(Cl)c4)c23)C1; > 1000 nM
C=CC(=O)N1CCC(c2c[nH]c3ncnc(Nc4ccc(Oc5ccnc(N6C[C@H](OC)[C@H](OC)C6)c5)cc4F)c23)CC1; > 1000 nM

Give the reported GI50 for this molecule. C=CC(=O)N1CCC(c2n[nH]c3ncnc(Nc4ccc(Oc5nc(-c6ccnn6C)cs5)cc4F)c23)CC1 > 1000 nM

Give the reported GI50 for this molecule. C=CC(=O)N1CCC(c2c[nH]c3ncnc(Nc4ccc(OCc5cscn5)c(Cl)c4)c23)CC1 50 to 200 nM

Give the reported GI50 for this molecule. C=CC(=O)N1CCC(c2n[nH]c3ncnc(Nc4ccc(Oc5ccnc(N6C[C@H](OC)[C@H](OC)C6)c5)cc4F)c23)CC1 > 1000 nM

* * *

Reported GI50 values follow for various compounds
Tested on: A431 cells
Test: Cell growth inhibition (CellTiter-Glo), A431
Type: cell-based
Details: Homo sapiens, A-431, 72 h, 3 days

These recorded examples may help you get a feel for the data.
C=CC(=O)N1CCC(c2n[nH]c3ncnc(Nc4ccc(O[C@H]5CCCN(S(=O)(=O)c6ccc(OC)nc6)C5)cc4F)c23)CC1 [Compound 187]; > 1000 nM
C=CC(=O)N1CCC(c2c[nH]c3ncnc(Nc4ccc(Oc5ccnc(N6CCC[C@@H](OC)C6)c5)cc4F)c23)CC1 [Compound 147]; > 1000 nM
C=CC(=O)N1CCC(c2c[nH]c3ncnc(Nc4ccc(OCc5ccccn5)c(Cl)c4)c23)CC1 [Compound 156]; < 50 nM
C=CC(=O)N1CCC(c2ccn3ncnc(Nc4ccc(Oc5nc(-c6ccnn6C)cs5)cc4F)c23)CC1 [Compound 207]; > 1000 nM

Give the reported GI50 for this compound. C=CC(=O)N1CCC(c2c[nH]c3ncnc(Nc4ccc(Oc5ccnc(N6CCN(C)CC6)c5)cc4F)c23)CC1 [Compound 152] > 1000 nM

Give the reported GI50 for this compound. C=CC(=O)N1CCC(c2n[nH]c3ncnc(Nc4ccc(Oc5ccnc(N6CCC(C(F)(F)F)C6)c5)cc4F)c23)CC1 (centres unmarked) [Compound 173] > 1000 nM

Give the reported GI50 for this compound. C=CC(=O)N1CCC(c2c[nH]c3ncnc(Nc4ccc(Oc5ccnc(N6CC7C(C6)C7(F)F)c5)cc4F)c23)CC1 (centres unmarked) [Compound 148] > 1000 nM

Give the reported GI50 for this compound. C=CC(=O)N1CCC(c2c[nH]c3ncnc(Nc4ccc(Oc5ccn(-c6cnc(C)c(F)c6)n5)cc4F)c23)CC1 [Compound 150] > 1000 nM

Give the reported GI50 for this compound. C=CC(=O)N1CCC(c2c[nH]c3ncnc(Nc4ccc(OCc5cnccn5)c(Cl)c4)c23)CC1 [Compound 116] 50 to 200 nM

Give the reported GI50 for this compound. C=CC(=O)N1CCC(c2c[nH]c3ncnc(Nc4ccc(OCc5nccs5)c(Cl)c4)c23)CC1 [Compound 153] < 50 nM

Give the reported GI50 for this compound. C=CC(=O)N1CCC(c2n[nH]c3ncnc(Nc4ccc(Oc5ccnc(N6CCC(C#N)C6)c5)cc4F)c23)CC1 (centres unmarked) [Compound 179] > 1000 nM

Give the reported GI50 for this compound. C=CC(=O)N1CC=C(c2c[nH]c3ncnc(Nc4ccc(OCc5ccccn5)c(Cl)c4)c23)CC1 [Compound 154] 200 to 1000 nM

Give the reported GI50 for this compound. C=CC(=O)N1CCC(c2c[nH]c3ncnc(Nc4ccc(Oc5ccc(-c6cc(C)[nH]c(=O)c6)cc5)c(Cl)c4F)c23)CC1 [Compound 138] > 1000 nM

Give the reported GI50 for this compound. C=CC(=O)N1CCC(c2n[nH]c3ncnc(Nc4ccc(Oc5ccnc(NC(=O)C(C)C)c5)cc4F)c23)CC1 [Compound 182] > 1000 nM
